target: hADORA1/CHO (hA1 expressing) cells (Homo sapiens (Human), UniProt P30542); assay: cell-based; details: FLIPR inhibition, 10 μM adenosine, read-out: cAMP & FLIPR IC50 (nM) hA1
Sequence (P30542 whole entry): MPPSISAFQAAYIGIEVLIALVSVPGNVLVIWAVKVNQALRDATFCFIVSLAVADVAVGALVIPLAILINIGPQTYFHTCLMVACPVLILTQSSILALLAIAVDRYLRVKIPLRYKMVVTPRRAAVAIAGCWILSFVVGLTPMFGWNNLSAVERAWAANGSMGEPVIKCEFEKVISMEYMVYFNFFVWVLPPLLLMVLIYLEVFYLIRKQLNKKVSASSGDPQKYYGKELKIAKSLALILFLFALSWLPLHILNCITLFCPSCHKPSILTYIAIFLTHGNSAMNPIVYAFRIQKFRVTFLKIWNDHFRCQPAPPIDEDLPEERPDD
IC50 class ranges: bin 0 (below 500 nM), bin 1 (500 nM to below 1000 nM), bin 2 (1000 nM or more)

Quick check: band for Cc1cnc2ccc(-c3nc(C(=O)NC[C@H]4CC(F)(F)CN4C)c(N)nc3-c3ncco3)cn12
bin 1

Class for COc1ccccc1C(=O)NCc1nc(-c2cc(C)nc(C)c2)c(-c2ccc(F)cc2)nc1N ?
bin 1

Sort into band: Cc1cc(-c2nc(C(=O)NCc3ccccc3F)c(N)nc2-c2ccc(F)cc2)cc(C)n1
bin 2

Could you tell me which band Cn1cc(-c2nc(C(=O)NCc3ncccc3C(F)(F)F)c(N)nc2-c2ncco2)ccc1=O belongs to?
bin 2

Exercise: read the entry Cc1cnc2ccc(-c3nc(C(=O)NCCS(C)(=O)=O)c(N)nc3-c3ccc(F)cc3)cn12 and state which class it falls under.
bin 0

Exercise: read the entry COCCNC(=O)c1nc(-c2ccc3ncc(C)n3c2)c(-c2ncco2)nc1N and state which class it falls under.
bin 2

Category of Cc1cnc2ccc(-c3nc(C(=O)NC[C@@H]4CCCO4)c(N)nc3-n3nccn3)cn12 , please.
bin 1

Would you mind sorting Cn1cc(-c2nc(C(=O)NCc3c(F)cccc3OC(F)F)c(N)nc2-c2ccc(F)cc2)ccc1=O into the appropriate category?
bin 0

Which of the defined bands does the recorded IC50 of Nc1nc(-c2ncco2)c(-c2ccc(=O)n(CCO)c2)nc1C(=O)NCc1c(F)cccc1F sit within?
bin 0
